This collection of values is drawn from paper PMC8268887.

system: A. baumannii ATCC 19606; format: cell-based, Acinetobacter baumannii; settings: ATCC 19606, 20 h
property: MIC, AB (µg/mL)

INSERT INTO assay_data (compound, unitsymbol, resultvalue) VALUES
  ('NCCCC[C@H](NC(=O)CCN(Cc1ccc(F)cc1)C(=O)[C@H](CCCCN)NC(=O)CCN(Cc1ccc(F)cc1)C(=O)[C@H](CCCCN)NC(=O)COCCOCCNC(=O)CCN(Cc1ccc(F)cc1)C(=O)[C@H](CCCCN)NC(=O)CCN(Cc1ccc(F)cc1)C(=O)[C@H](CCCCN)NC(=O)CCN(Cc1ccc(F)cc1)C(=O)[C@@H](N)CCCCN)C(=O)N(CCC(N)=O)Cc1ccc(F)cc1 [Compound 7, H-[X]3-sPEG2-[X]3-NH2]', 'µg/mL', 4),
  ('NCCCC[C@H](NC(=O)CCN(Cc1ccc(F)cc1)C(=O)[C@H](CCCCN)NC(=O)COCCNC(=O)CCN(Cc1ccc(F)cc1)C(=O)[C@H](CCCCN)NC(=O)CCN(Cc1ccc(F)cc1)C(=O)[C@H](CCCCN)NC(=O)COCCNC(=O)CCN(Cc1ccc(F)cc1)C(=O)[C@H](CCCCN)NC(=O)CCN(Cc1ccc(F)cc1)C(=O)[C@@H](N)CCCCN)C(=O)N(CCC(N)=O)Cc1ccc(F)cc1 [Compound 15, H-[X]2-sPEG1-[X]2-sPEG1-[X]2-NH2]', 'µg/mL', 8);

----------
Consider the following compounds and their measured MIC, KP readings.
System: K. pneumoniae ATCC 13883
Type: cell-based
Conditions: ATCC 13883, 20 h
Procedure: MIC values of the peptidomimetics were evaluated by using the modified Hancock lab protocol in non-binding polystyrene microtiter plates. Bacterial suspensions of ~5 × 10^5 CFU/mL in Mueller-Hinton broth (Difco, Sparks, MD, USA) were prepared with Mg^2+ and Ca^2+ concentrations of 4 mg/L each. […] Following incubation for 20 h of the covered plates at 35 °C (±2 °C) with circular shaking at 180 rpm, the MICs were read.
property: MIC, KP

INSERT INTO results (compound, resultvalue) VALUES
  ('NCCCC[C@H](NC(=O)CCN(Cc1ccc(F)cc1)C(=O)[C@H](CCCCN)NC(=O)CCN(Cc1ccc(F)cc1)C(=O)[C@H](CCCCN)NC(=O)CCOCCOCCOCCOCCNC(=O)CCN(Cc1ccc(F)cc1)C(=O)[C@H](CCCCN)NC(=O)CCN(Cc1ccc(F)cc1)C(=O)[C@H](CCCCN)NC(=O)CCN(Cc1ccc(F)cc1)C(=O)[C@@H](N)CCCCN)C(=O)N(CCC(N)=O)Cc1ccc(F)cc1 [Compound 9, H-[X]3-sPEG4-[X]3-NH2]', '>64 mg/L'),
  ('NCCCC[C@H](NC(=O)CCN(Cc1ccc(F)cc1)C(=O)[C@H](CCCCN)NC(=O)COCCOCCOCCNC(=O)CCN(Cc1ccc(F)cc1)C(=O)[C@H](CCCCN)NC(=O)CCN(Cc1ccc(F)cc1)C(=O)[C@H](CCCCN)NC(=O)COCCOCCOCCNC(=O)CCN(Cc1ccc(F)cc1)C(=O)[C@H](CCCCN)NC(=O)CCN(Cc1ccc(F)cc1)C(=O)[C@@H](N)CCCCN)C(=O)N(CCC(N)=O)Cc1ccc(F)cc1 [Compound 17, H-[X]2-sPEG3-[X]2-sPEG3-[X]2-NH2]', '>64 mg/L'),
  ('NCCCC[C@H](NC(=O)CCN(Cc1ccc(F)cc1)C(=O)[C@H](CCCCN)NC(=O)CCN(Cc1ccc(F)cc1)C(=O)[C@H](CCCCN)NC(=O)COCCOCCOCCN)C(=O)N(CCC(=O)NCCOCCOCCOCC(=O)N[C@@H](CCCCN)C(=O)N(CCC(=O)N[C@@H](CCCCN)C(=O)N(CCC(=O)N[C@@H](CCCCN)C(=O)N(CCC(=O)NCCOCCOCCOCC(N)=O)Cc1ccc(F)cc1)Cc1ccc(F)cc1)Cc1ccc(F)cc1)Cc1ccc(F)cc1 [Compound 13, H-sPEG3-[X]3-sPEG3-[X]3-sPEG3-NH2]', '>64 mg/L');
